- assay.notes: Aqueous solubility
- Format: physicochemical
- condition.label: water, free base (* footnote), read-out: Aqueous Solubility of Free Base
Recorded solubility, one value per entry.

test.smiles: O=c1[nH]c2cc3cc(OCCCS(=O)(=O)N4CCN(Cc5ccccc5)CC4)ccc3nc2[nH]1
solubility: ~1000 µg/mL

test.smiles: O=CN1CCN(S(=O)(=O)CCCOc2ccc3nc4[nH]c(=O)[nH]c4cc3c2)CC1
solubility: < 1000 µg/mL

# next compound below
Q. Could you tell me which solubility is on file for O=c1[nH]c2cc3cc(OCCCS(=O)(=O)N4CCNCC4)ccc3nc2[nH]1 ?
A. ~1000 µg/mL
